Answer each item with its documented activity, negative = cell killing.
Procedure summary: Drug repurposing screens with cells derived from glioblastoma tumor samples (AID 1345199); note: % is set by controls: 0 for no effect and ±100 for the full control effect
Setup conditions: GBM patient neurospheres viability, ATP luminescence, 48 h; at 46.1 µM (top of the series); tumour line C
Records with an inconclusive call do not appear.
I only need the number, in %, no unit after it.

Input Cc1cnc(C(=O)NCCc2ccc(S(=O)(=O)NC(=O)NC3CCCCC3)cc2)cn1 , output reported activity, negative = cell killing.
18

Answer with the recorded activity, negative = cell killing of Cn1cnc2c1c(=O)[nH]c(=O)n2C only.
1.28

Give the reported activity, negative = cell killing for this molecule. O=C1N(c2ccccc2)c2ccccc2C1(Cc1ccncc1)Cc1ccncc1
-22.5

Identify the reported activity, negative = cell killing for the following entry. CC(CCc1ccc(O)cc1)NCCc1ccc(O)c(O)c1 (centres undefined)
5.45

Return the recorded activity, negative = cell killing value; entry: CCN1CCCC1CNC(=O)c1cc(S(=O)(=O)CC)c(N)cc1OC (centres undefined)
-4.87

Please list activity, negative = cell killing recorded for the molecule NC(CO)C(=O)NNCc1ccc(O)c(O)c1O (centres undefined)
12.3

Look up and report measured activity, negative = cell killing for this entry: O=C(c1ccc(F)cc1)C1CCN(CCn2c(=O)[nH]c3ccccc3c2=O)CC1
7.2

Tell me activity, negative = cell killing reported for CC(=O)OCC(CCn1cnc2cnc(N)nc21)COC(C)=O
-0.294

Report measured activity, negative = cell killing; entry is Cc1cc(C(C)(C)C)c(O)c(C)c1CC1=NCCN1
5.76

Recall and state the measured activity, negative = cell killing for CCOC(=O)c1ncn2c1CN(C)C(=O)c1cc(F)ccc1-2 .
4.97

State its activity, negative = cell killing for this molecule: CC[N+](CC)(CC)CCOc1cccc(OCC[N+](CC)(CC)CC)c1OCC[N+](CC)(CC)CC
-0.854

Give a short answer stating reported activity, negative = cell killing for Cn1c(=O)c2c(ncn2C)n(C)c1=O .
-0.268

Using known records, supply activity, negative = cell killing for Nc1c2c(nc3ccccc13)CCCC2
-23.5

Determine its reported activity, negative = cell killing: CC(C(=O)O)c1cccc(C(=O)c2ccccc2)c1 (centres undefined)
2.51

Determine from records and report activity, negative = cell killing for O=C(C1CCCCC1)N1CC(=O)N2CCc3ccccc3C2C1 (centres undefined)
-6.57

Entry COc1ccccc1N1CCN(CC(O)COc2cccc3ccccc23)CC1 (centres undefined) needs its activity, negative = cell killing filled in; supply it.
-13.1

Return activity, negative = cell killing for the following molecule: CC[C@@]1(O)C(=O)OCc2c1cc1n(c2=O)Cc2cc3c(CN(C)C)c(O)ccc3nc2-1
-20.9

Return activity, negative = cell killing for the following molecule: CC(C)(Oc1ccc(C2CC2(Cl)Cl)cc1)C(=O)O (centres undefined)
6.66

Indicate its recorded activity, negative = cell killing; the molecule in question is CCc1cccc2c3c([nH]c12)C(CC)(CC(=O)O)OCC3 (centres undefined)
-25.9

Recall and state the measured activity, negative = cell killing for CC1COc2c(N3CCN(C)CC3)c(F)cc3c(=O)c(C(=O)O)cn1c23 (centres undefined) .
-10.7

Answer with the recorded activity, negative = cell killing of COc1ccc2[nH]cc(CCNC(C)=O)c2c1 only.
-11.3

Look up activity, negative = cell killing of CCOC(=O)C(C)(C)Oc1ccc(Cl)cc1 and report it.
5.62

Give activity, negative = cell killing for the following molecule: CC(C)(C)C(=O)Oc1ccc(S(=O)(=O)Nc2ccccc2C(=O)NCC(=O)O)cc1
-13.4

Fill in reported activity, negative = cell killing for this entry: CC(C)Cc1ccc(C(C)C(=O)O)cc1 (centres undefined)
-7.76
